Entries and their measured logP follow.

Some compounds with recorded logP:
Cc1nc(OCCO)c(C#N)cc1-c1ccncc1 :: 1.83
CC(O)COc1ncc(-c2ccncc2)cc1C#N (configuration not stated) :: 1.65
COCCOc1nc(C)c(-c2ccccc2)cc1C#N :: 3.74
N#Cc1cc(-c2ccncc2)cnc1OCCCO :: 1.63
Cc1nc(OCCO)c(C#N)cc1-c1ccccc1 :: 3.23

Q) Value lookup for logP; key = Cc1nc(OCCOCCO)c(C#N)cc1-c1ccncc1
A) 1.81

Q) Quick one: logP for N#Cc1cc(-c2ccncc2)cnc1OCC(O)CO (configuration not stated) ?
A) 0.76
